Measured phosphorylation enrichment of individual entries
Tested on: c-Abl (mouse)
Procedure details: phosphorylation enrichment, bacterial display (enrichment ratio); higher = better substrate or ligand; peptides without Tyr show the background;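 also: 11-residue human phosphosite peptides and single-mutation variants displayed on the E. coli surface, counted by deep sequencing, each peptide's frequency after selection divided by its frequency in the unselected input library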;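 also: frequency after pTyr selection over input frequency; kinase dosed for 20-30% of maximal phosphorylation in three min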
Number only, no unit.

Solved entries (count: 6):
[[record]]
ordered_residues = "SLMNQYVNKEF [RAB7A_Y28_K32E]"
target_or_test_system = "c-Abl (mouse)"
result_number = 0.482

[[record]]
ordered_residues = "TVFSDYLHPQY [CCPG1_Y569]"
target_or_test_system = "c-Abl (mouse)"
result_number = 0.785

[[record]]
ordered_residues = "DFLSSYSAVKQ [OAT_Y85_N89K]"
target_or_test_system = "c-Abl (mouse)"
result_number = 0.46

[[record]]
ordered_residues = "VGEGPYLLSDL [ABCC12_Y7_I9L]"
target_or_test_system = "c-Abl (mouse)"
result_number = 0.586

[[record]]
ordered_residues = "LHNLFYQLEAE [PKP2_Y616_S615F]"
target_or_test_system = "c-Abl (mouse)"
result_number = 2.03

[[record]]
ordered_residues = "DKTGEYPVPLI [ACADM_Y73]"
target_or_test_system = "c-Abl (mouse)"
result_number = 0.55


We next turn to a different sequence, shown below.
Query: Field request: phosphorylation enrichment | item: VNNTVYGIDAM [EIF3J_Y143_A141T]
Result: 0.616

----------
Test system: c-Src
Procedure details: phosphorylation enrichment, bacterial display (enrichment ratio); higher = better substrate or ligand; peptides without Tyr show the background
Measured phosphorylation enrichment of individual entries

Solved entries (count: 10):
[[record]]
ordered_residues = "DDDPEDRKFLE [UPF3B_Y160_Y160D]"
property_measured = "phosphorylation enrichment"
result = 0.503

[[record]]
ordered_residues = "IGEGTYGVVYK [CDK2_Y15]"
property_measured = "phosphorylation enrichment"
result = 5.96

[[record]]
ordered_residues = "WISNRYPDFSS [PRPH2_Y184_L185P]"
property_measured = "phosphorylation enrichment"
result = 0.52

[[record]]
ordered_residues = "CEHRGSLFLAI [TEK_Y897_Y897S_YF]"
property_measured = "phosphorylation enrichment"
result = 0.457

[[record]]
ordered_residues = "CTTNHYNYMCN [TP53_Y234_I232N]"
property_measured = "phosphorylation enrichment"
result = 0.373

[[record]]
ordered_residues = "LTRDIYKNDFF [ROS1_Y2110_A2106T_YF]"
property_measured = "phosphorylation enrichment"
result = 0.475

[[record]]
ordered_residues = "PLDGEYFTRQI [TP53_Y327_L330R]"
property_measured = "phosphorylation enrichment"
result = 0.841

[[record]]
ordered_residues = "RAEAQYLLVSN [LRIG1_Y1054]"
property_measured = "phosphorylation enrichment"
result = 0.648

[[record]]
ordered_residues = "VNNTVYGIDAM [EIF3J_Y143_A141T]"
property_measured = "phosphorylation enrichment"
result = 0.596

[[record]]
ordered_residues = "SIKDKYVTAFF [KCNH2_Y611_L615F_YF]"
property_measured = "phosphorylation enrichment"
result = 0.372


Query: Field request: phosphorylation enrichment | item: PKFHSYVSLPF [PLXNA2_Y293]
Result: 0.734

Query: Next up: ESDYTYSSSYE [SRPK2_Y427]
Result: 1.43

Query: Next up: DTMQTYNGNDE [TSPAN7_Y131_A127T]
Result: 0.502

Query: Next up: CTNIHYNYMCN [TP53_Y234_T231N]
Result: 0.408

Query: Next up: KDFETYQSFQN [CTNND2_Y1157_P1159S_YF]
Result: 4.94

Query: Next up: GTVRDYPDFSP [ANXA3_Y15]
Result: 0.372
